Molecular target: DENV2proHeLa NS2B-NS3 protease (Dengue virus 2 Thailand/16681/84, UniProt P29990)
Sequence (P29990 1476-2093 limits assumed): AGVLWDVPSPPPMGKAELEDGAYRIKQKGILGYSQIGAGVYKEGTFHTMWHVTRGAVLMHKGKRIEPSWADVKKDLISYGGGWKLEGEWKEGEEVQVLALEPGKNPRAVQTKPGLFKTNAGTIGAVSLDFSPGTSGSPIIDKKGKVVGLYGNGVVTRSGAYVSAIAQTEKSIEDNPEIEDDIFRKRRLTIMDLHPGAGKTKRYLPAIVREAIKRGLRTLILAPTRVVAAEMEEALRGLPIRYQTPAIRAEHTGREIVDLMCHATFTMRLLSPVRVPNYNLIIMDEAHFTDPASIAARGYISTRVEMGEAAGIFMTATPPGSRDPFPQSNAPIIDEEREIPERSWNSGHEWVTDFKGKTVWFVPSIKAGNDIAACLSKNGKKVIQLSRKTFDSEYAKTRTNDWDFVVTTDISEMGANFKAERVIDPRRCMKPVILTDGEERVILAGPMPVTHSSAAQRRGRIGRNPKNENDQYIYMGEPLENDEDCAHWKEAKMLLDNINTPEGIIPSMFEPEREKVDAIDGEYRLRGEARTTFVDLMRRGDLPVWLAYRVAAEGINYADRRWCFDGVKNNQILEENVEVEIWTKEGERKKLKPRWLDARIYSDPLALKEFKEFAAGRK
Sequence (P29990 1346-1475 partner limits assumed): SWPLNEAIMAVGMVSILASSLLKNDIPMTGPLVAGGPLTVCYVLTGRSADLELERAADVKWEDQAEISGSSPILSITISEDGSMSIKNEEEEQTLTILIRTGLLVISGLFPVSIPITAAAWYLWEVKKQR
Assay: cell-based
Design: species or system DENV2proHeLa (HeLa)
Conditions: HeLa, read-out: % inhibition
Would you kindly list inhibition at 12.5 µM for each of these compounds?
One number for each entry, in %.

COMPOUND: CC(C)Cc1ccc(C(C)C(=O)N[C@H](C(=O)Nc2cccc(C(N)=O)c2)c2ccc(OCc3ccccc3)cc2)cc1 (stereo partly drawn)
READING_UNIT: %
READING: 84
--
COMPOUND: NC(=O)c1cccc(NC(=O)[C@@H](NC(=O)Cc2ccccc2Nc2c(Cl)cccc2Cl)c2ccc(OCc3ccccc3)cc2)c1
READING_UNIT: %
READING: 60
--
COMPOUND: NC(=O)c1cccc(NC(=O)[C@@H](NC(=O)Cc2ccc(Oc3ccccc3)cc2)c2ccc(OCc3ccccc3)cc2)c1
READING_UNIT: %
READING: 78

Go through the list and state inhibition at 12.5 µM for each entry.
1. CC(C(=O)NCC1(CC(=O)N[C@H](C(=O)Nc2cccc(C(N)=O)c2)c2ccc(OCc3ccccc3)cc2)CCCCC1)c1ccc2c(c1)[nH]c1ccc(Cl)cc12 (stereo partly drawn)
2. NC(=O)c1cccc(NC(=O)[C@@H](NC(=O)c2ccc(-c3ccccc3)o2)c2ccc(OCc3ccccc3)cc2)c1

stdout:
60
85

Looking up `COc1cc(C(=O)N[C@H](C(=O)Nc2cccc(C(N)=O)c2)c2ccc(OCc3ccccc3)cc2)ccc1Oc1ccccc1` , I found its inhibition at 12.5 µM recorded as 86

---

Would you kindly list pIC50 for each of these molecules?
Target: NS2B(H)-NS3pro (DENV-2 NS2B-NS3 protease) (Dengue virus 2 Thailand/NGS-C/1944)
Sequence (P14340 1394-1433 limits assumed): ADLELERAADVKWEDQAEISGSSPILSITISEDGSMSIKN
Sequence (P14340 1476-1660 limits assumed): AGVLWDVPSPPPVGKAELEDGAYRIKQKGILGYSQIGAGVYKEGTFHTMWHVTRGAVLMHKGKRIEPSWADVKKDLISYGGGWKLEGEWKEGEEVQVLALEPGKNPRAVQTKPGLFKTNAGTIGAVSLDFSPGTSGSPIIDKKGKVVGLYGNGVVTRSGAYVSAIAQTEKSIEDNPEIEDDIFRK
Settings: read-out: IC50 (C7.5-HEPES AMC); AMC substrate, HEPES pH 7.5, CHAPS; inhibitor
Answers are plain numbers, as −log10 of the molar value.

Completed entries (count: 4):
MOLECULE: CC(C)Cc1ccc(C(C)C(=O)N[C@H](C(=O)Nc2cccc(C(N)=O)c2)c2ccc(OCc3ccccc3)cc2)cc1 (some centres unmarked)
pIC50: 5.10
//
MOLECULE: COc1ccc2cc([C@H](C)C(=O)N[C@H](C(=O)Nc3cccc(C(N)=O)c3)c3ccc(OCc4ccccc4)cc3)ccc2c1
pIC50: 4.92
//
MOLECULE: CC(C(=O)N[C@H](C(=O)Nc1cccc(C(N)=O)c1)c1ccc(OCc2ccccc2)cc1)c1cccc(Oc2ccccc2)c1 (some centres unmarked)
pIC50: 5.01
//
MOLECULE: CC(C(=O)NCC1(CC(=O)N[C@H](C(=O)Nc2cccc(C(N)=O)c2)c2ccc(OCc3ccccc3)cc2)CCCCC1)c1ccc2c(c1)[nH]c1ccc(Cl)cc12 (some centres unmarked)
pIC50: 5.10

// switching to the query molecule
Looking up `COc1cc(C(=O)N[C@H](C(=O)Nc2cccc(C(N)=O)c2)c2ccc(OCc3ccccc3)cc2)ccc1Oc1ccccc1` , I found its pIC50 recorded as 4.92

---

Would you kindly list EC50 for each of these molecules?
Biological target: DENV2proHeLa NS2B-NS3 protease (Dengue virus 2 Thailand/16681/84)
Experiment: cell-based
Design: species or system DENV2proHeLa (HeLa)
Conditions: read-out: DENV2proHeLa EC50; inhibitor
One number for each entry, in µM.

Completed entries (count: 3):
MOLECULE: COc1ccc2cc([C@H](C)C(=O)N[C@H](C(=O)Nc3cccc(C(N)=O)c3)c3ccc(OCc4ccccc4)cc3)ccc2c1 [compound 10, 10]
READING_UNIT: µM
READING: 3.7

MOLECULE: NC(=O)c1cccc(NC(=O)[C@@H](NC(=O)c2ccc(-c3ccccc3)o2)c2ccc(OCc3ccccc3)cc2)c1 [compound 5, 5]
READING_UNIT: µM
READING: 5.9

MOLECULE: CC(C(=O)N[C@H](C(=O)Nc1cccc(C(N)=O)c1)c1ccc(OCc2ccccc2)cc1)c1cccc(Oc2ccccc2)c1 (stereo partly shown) [compound 4, 4]
READING_UNIT: µM
READING: 4

// switching to the query molecule
Observed EC50, DENV2proHeLa NS2B-NS3 protease (Dengue virus 2 Thailand/16681/84), CC(C(=O)NCC1(CC(=O)N[C@H](C(=O)Nc2cccc(C(N)=O)c2)c2ccc(OCc3ccccc3)cc2)CCCCC1)c1ccc2c(c1)[nH]c1ccc(Cl)cc12 (stereo partly shown) [compound 6, 6] : 2.9
